- measurementDescription: Megestrol Acetate in plasma samples by GC/MS
- Type: in vivo
- measurementConditions: human, 1.5 mg, Sub 5, 1.5 mg dose, 4 h post dosing
measureName: concentration at 4 h (ng/mL)
Give a bare numeral; the unit ng/mL is implied.

// concentration at 4 h lookup, key: CC(=O)O[C@]1(C(C)=O)CC[C@H]2[C@@H]3C=C(C)C4=CC(=O)CC[C@]4(C)[C@H]3CC[C@@]21C [megestrol acetate]
0.959

###

- measurementDescription: Megestrol Acetate in plasma samples by GC/MS
- Assay type: in vivo
- measurementConditions: human, 1.5 mg, Sub 7, 1.5 mg dose, 36 h post dosing
measureName: concentration at 36 h (ng/mL)
# value in ng/mL; strip the unit string

Would you kindly share the measured concentration at 36 h for CC(=O)O[C@]1(C(C)=O)CC[C@H]2[C@@H]3C=C(C)C4=CC(=O)CC[C@]4(C)[C@H]3CC[C@@]21C [megestrol acetate] ?
0.592

###

- measurementDescription: Megestrol Acetate in plasma samples by GC/MS
- Assay type: in vivo
- measurementConditions: human, 6 mg, Sub 2, 6 mg dose, 12 h post dosing
measureName: concentration at 12 h (ng/mL)
Answer format: numeric, ng/mL implied, no suffix.

Need concentration at 12 h of CC(=O)O[C@]1(C(C)=O)CC[C@H]2[C@@H]3C=C(C)C4=CC(=O)CC[C@]4(C)[C@H]3CC[C@@]21C [megestrol acetate] , thanks.
5.84

###

- measurementDescription: Megestrol Acetate in plasma samples by GC/MS
- Assay type: in vivo
- measurementConditions: human, 1.5 mg, Sub 1, 1.5 mg dose, 4 h post dosing
measureName: concentration at 4 h (ng/mL)
Give the quantity in ng/mL, number only.

What value of concentration at 4 h has been reported for the following compound? CC(=O)O[C@]1(C(C)=O)CC[C@H]2[C@@H]3C=C(C)C4=CC(=O)CC[C@]4(C)[C@H]3CC[C@@]21C [megestrol acetate]
1.01

###

- measurementDescription: Megestrol Acetate in plasma samples by GC/MS
- Assay type: in vivo
- measurementConditions: human, 6 mg, Sub 8, 6 mg dose, time 0 h (predose)
- Description: A total of 90 plasma samples were analyzed for their content of Megestrol Acetate by GC/MS. In this study megestrol acetate was utilized and medroxyprogesterone acetate was utilized as an internal standard. For each sample, 1 mL of human plasma was aliquoted and spiked with 25 μL of the internal standard working solution. […] The time measured represents the number of hours passed post dosing. […] During the study, 3 series of plasma calibration curves were measured (prevalidation run not considered).
measureName: concentration at 0 h

May I ask what concentration at 0 h has been recorded for CC(=O)O[C@]1(C(C)=O)CC[C@H]2[C@@H]3C=C(C)C4=CC(=O)CC[C@]4(C)[C@H]3CC[C@@]21C [megestrol acetate] ?
< 0.1 ng/mL

###

- measurementDescription: Megestrol Acetate in plasma samples by GC/MS
- Format: in vivo
- measurementConditions: human, 6 mg, Sub 10, 6 mg dose, 48 h post dosing
measureName: concentration at 48 h (ng/mL)
Unit ng/mL implied. Number only.

Find the recorded concentration at 48 h belonging to CC(=O)O[C@]1(C(C)=O)CC[C@H]2[C@@H]3C=C(C)C4=CC(=O)CC[C@]4(C)[C@H]3CC[C@@]21C [megestrol acetate] and report it.
1.63
